Entries and their measured Intrinsic activity follow.
experiment: Intrinsic activity relative to dopamine at D-2 receptor.; type: functional
Number in %, nothing else.

INSERT INTO assay_data (compound, number) VALUES
  ('NC[C@@H]1OC(c2ccccc2)Cc2c1ccc(O)c2O (stereo partly specified)', 101),
  ('CCCCCCC1Cc2c(ccc(O)c2O)[C@H](CN)O1 (stereo partly specified)', 80),
  ('NC[C@@H]1OC(c2cccc(O)c2)Cc2c1ccc(O)c2O (stereo partly specified)', 111),
  ('NC[C@@H]1OC(C2CCCCC2)Cc2c1ccc(O)c2O (stereo partly specified)', 85),
  ('NC[C@H]1O[C@@H](c2ccccc2)Cc2c1ccc(O)c2O', 96);

Moving on to another compound below.
*Q* Query (compound): `NC[C@@H]1OCCc2c1ccc(O)c2O` ; field requested: Intrinsic activity
*A* 96

###

assay: Intrinsic activity relative to dopamine at D-2 receptor.; type: functional
Label yes (1) when Intrinsic activity is at or above 80%; otherwise label no (0).

INSERT INTO results (molecule, labelclass) VALUES
  ('NC[C@@H]1O[C@H](c2ccccc2)Cc2c1ccc(O)c2O', 'yes (1)');

*Q* I'd appreciate it if you could say whether NC[C@@H]1OC(C2CCCCCCC2)Cc2c1ccc(O)c2O (stereo not given in full) has Intrinsic activity at least equal to 80%.
*A* no (0)

*Q* Same thing, different molecule: C#CCC1Cc2c(ccc(O)c2O)[C@H](CN)O1 (stereo not given in full)
*A* yes (1)

*Q* Same lookup for NC[C@@H]1OC(c2ccc(Br)cc2)Cc2c1ccc(O)c2O (stereo not given in full) , please.
*A* yes (1)

*Q* Another molecule to check: `NC[C@@H]1OC2(CCCCC2)Cc2c1ccc(O)c2O`
*A* no (0)

*Q* What about NC[C@@H]1OC(CC2CCCC2)Cc2c1ccc(O)c2O (stereo not given in full) ?
*A* no (0)

*Q* Another molecule: `CC[C@H]1Cc2c(ccc(O)c2O)[C@H](CN)O1`
*A* no (0)

###

assay: Intrinsic activity relative to dopamine at D-2 receptor.; type: functional
Measured Intrinsic activity, listed per entry.
Just the number in %, nothing appended.

Some solved cases for reference:
INSERT INTO assay_data (compound, scaleunit, number) VALUES
  ('CCCCC1Cc2c(ccc(O)c2O)[C@H](CN)O1 (stereo partly drawn)', '%', 80),
  ('NC[C@@H]1OC(COCc2ccccc2)Cc2c1ccc(O)c2O (stereo partly drawn)', '%', 78);

*Q* Which measured Intrinsic activity value corresponds to `CC[C@@H]1Cc2c(ccc(O)c2O)[C@H](CN)O1` ?
*A* 81

Hey, just so you know, these numbers are from ChEMBL document CHEMBL1125832.
